Data provenance is the MegaScale stability set (Tsuboyama et al. 2023).

B1: EEHEE_rd4_0469 (parent)
chain: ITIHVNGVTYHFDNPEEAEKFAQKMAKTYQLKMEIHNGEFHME

- Variants of: B1
- protocolText: folding stability dG (cDNA display proteolysis); higher = more stable
- testContext: PBS, room temperature
Each entry below carries its recorded folding stability dG.
Give a bare numeral; the unit kcal/mol is implied.

INSERT INTO assay_data (variantidentifier, assayendpoint, measured) VALUES
  ('Q30H', 'folding stability dG', 1.43),
  ('N6F', 'folding stability dG', 2.18),
  ('H41S', 'folding stability dG', 0.86),
  ('N6K', 'folding stability dG', 1.37),
  ('G38M', 'folding stability dG', 0.798);

# folding stability dG lookup, item K32A 1.37

Can you share its folding stability dG? I mean this variant: L31I 1.15

Given the entry N14M , report its measured folding stability dG. 0.98

Which folding stability dG value belongs to H11Y ? 1.18

Tell me the measured folding stability dG of M42D , please. 0.727

Which value of folding stability dG has been reported for I35S in the records? 0.764

Can you share its folding stability dG? I mean this variant: K20C 2.01

Param item = P15D ; retrieve measured folding stability dG. 0.883

// lookup folding stability dG for E16V 1.18

Reported folding stability dG, variant G7F : ____ 1.65

Fill in: folding stability dG of A26K is ___ 1.01

So what's the measured folding stability dG for this one? E17M 1.07

Look at this variant and give its reported folding stability dG. Q30N 1.17

Data request, read-out folding stability dG, for E34K 1.17

Recorded folding stability dG for Q30I , please? 0.708

Give the measured folding stability dG of E19T . 1.3

Reported folding stability dG for M25R : what is it? 0.041

Recorded folding stability dG for A22K , please? 0.843

Return reported folding stability dG; argument: H36G 0.601

Report folding stability dG for I1G please. 0.443

Request the reported folding stability dG associated with M25H 0.288

Requested field: folding stability dG. Item: M42N 0.637
